From: patent US20220340566A1

assay: Metabolic stability test in pooled human liver microsomes; format: in vitro ADME; conditions: human liver microsomes 0.5 mg protein/mL, 1 mmol/L NADPH, 37° C., 30 minutes
assay_readout: MS_h_% (remaining amount of compound after reaction, 0 minute = 100%)
Give just the numeric value; % need not be written.

CCc1nc2ccc(Cl)cn2c1C(=O)NCc1ccc(N2CCN(c3ccc(OCC4CC4)cc3)[C@@H](C)C2)cc1F.Cl : 75
Cc1nc2cnccn2c1C(=O)NCc1ccc(N2CCN(c3ccc(OC(F)(F)F)cc3)CC2)c(F)c1 : 60.4
Cc1ccc2nc(C)c(C(=O)NCc3ccc(N4CCN(c5ccc(OC(F)(F)F)cc5)[C@@H](C)C4)c(F)c3)n2c1 : 72

Task: Need MS_h_% (remaining amount of compound after reaction, 0 minute = 100%) of Cc1ccn2nc(C)c(C(=O)NCc3ccc(C4CCN(c5ccc(OC(F)(F)F)cc5)CC4)c(F)c3)c2c1.Cl , thanks.
Output: 87

Task: # repeat for CCc1nc2ccc(Cl)cn2c1C(=O)NCc1ccc(-n2cc3c(n2)CN(c2ccc(OC(F)(F)F)cc2)C3)c(F)c1.Cc1ccc(S(=O)(=O)O)cc1
Output: 63.2

Task: # repeat for Cc1nc2ccc(F)cn2c1C(=O)NCc1ccc(N2CCN(c3ccc(OC(F)(F)F)cc3)[C@H](C)C2)c(F)c1.Cl
Output: 86

###

Each entry below carries its recorded MS_h_% (remaining amount of compound after reaction, 0 minute = 100%).
experiment: Metabolic stability test in pooled human liver microsomes; assay type: in vitro ADME; details: human liver microsomes 0.5 mg protein/mL, 1 mmol/L NADPH, 37° C., 30 minutes

Answered cases to consult:
Cc1nn2ccc(F)cc2c1C(=O)NCc1ccc(N2CCN(c3ccc(OC(F)(F)F)cc3)[C@@H](C)C2)c(F)c1.Cl : 87%
CCc1nc2ccc(Cl)cn2c1C(=O)NCc1ccc(N2CCN(c3ccc(OC(F)(F)F)cc3)[C@@H](C)C2)c(F)c1 : 66%

Task: Need MS_h_% (remaining amount of compound after reaction, 0 minute = 100%) of Cc1ccn2c(C(=O)NCc3ccc(N4CC=C(c5ccc(OC(F)(F)F)cc5)CC4)c(F)c3)c(C)nc2c1.Cl , thanks.
Output: 95%

Task: # repeat for CCc1nc2cc(F)ccn2c1C(=O)NCc1ccc(N2CCN(c3ccc(OC(F)(F)F)cc3)[C@H]3CCCC[C@@H]32)c(F)c1.Cl
Output: 63%

Task: # repeat for CCc1nc2cc(F)ccn2c1C(=O)NCc1ccc(N2CCN(c3ccc(OCC(F)(F)F)cc3)[C@@H](C)C2)c(F)c1.Cl
Output: 69%

Task: # repeat for [2H]c1c(C([2H])([2H])[2H])c([2H])n2c(C(=O)NCc3ccc(-c4ccc(C(F)(F)F)cc4)cc3)c(C)nc2c1[2H]
Output: 84.7%

###

assay: Metabolic stability test in pooled human liver microsomes; type: in vitro ADME; details: human liver microsomes 0.5 mg protein/mL, 1 mmol/L NADPH, 37° C., 30 minutes
assay_readout: MS_h_% (remaining amount of compound after reaction, 0 minute = 100%)
Give just the numeric value; % need not be written.

Answered cases to consult:
Cc1nc2cc(Cl)ccn2c1C(=O)NCc1ccc(N2CCN(c3ccc(OC(F)(F)F)cc3)[C@@H](C)C2)c(F)c1.Cl : 90
Cc1nn2ccc(Br)cc2c1C(=O)NCc1ccc(N2CCN(c3ccc(OC(F)(F)F)cc3)[C@@H](C)C2)c(F)c1.Cl : 81
CCc1nc2ccc(Cl)cn2c1C(=O)NCc1cc(F)c(N2CCN(c3ccc(OC(F)(F)F)cc3)[C@@H](C)C2)cc1F.Cl : 67
Cc1cc2nc(C)c(C(=O)NCc3ccc(N4CCN(c5ccc(OC(F)(F)F)cc5)[C@@H](C)C4)c(F)c3)n2cc1F : 85
Cc1ccc2nc(C)c(C(=O)NCc3ccc(C4CCN(c5ccc(OC(F)(F)F)cc5)CC4)c(F)c3)n2c1 : 67

Task: Need MS_h_% (remaining amount of compound after reaction, 0 minute = 100%) of CCOc1ccc(N2CCC(c3ccc(CNC(=O)c4c(CC)nc5ccc(Cl)cn45)cc3F)CC2)cc1.Cl , thanks.
Output: 90

Task: # repeat for Cc1nc2ccc(Cl)cn2c1C(=O)NCc1ccc(N2CCC(c3ccc(OC(F)(F)F)cc3)CC2)cc1
Output: 75.5

###

assay: Metabolic stability test in pooled human liver microsomes; assay type: in vitro ADME; settings: human liver microsomes 0.5 mg protein/mL, 1 mmol/L NADPH, 37° C., 30 minutes
assay_readout: MS_h_% (remaining amount of compound after reaction, 0 minute = 100%)
Answer with the value and then the unit.

Cc1ccn2c(C(=O)NCc3ccc(C4CCN(c5ccc(OC(F)(F)F)cn5)CC4)cc3F)c(C)nc2c1 : 72%
CCc1nc2ccc(Cl)cn2c1C(=O)NCc1ccc(-c2ccc(OC(C)C)cc2)c(F)c1 : 96.1%

Task: Need MS_h_% (remaining amount of compound after reaction, 0 minute = 100%) of CCOc1ccc(N2CCC(c3ccc(CNC(=O)c4c(CC)nc5cc(F)ccn45)c(F)c3)CC2)cc1.Cl , thanks.
Output: 91%

Task: # repeat for COc1ccn2nc(C)c(C(=O)NCc3ccc(N4C[C@H](C)N(c5ccc(OC(F)(F)F)cc5)C[C@H]4C)c(F)c3)c2c1.Cl
Output: 72%

###

Each entry below carries its recorded MS_h_% (remaining amount of compound after reaction, 0 minute = 100%).
experiment: Metabolic stability test in pooled human liver microsomes; assay type: in vitro ADME; details: human liver microsomes 0.5 mg protein/mL, 1 mmol/L NADPH, 37° C., 30 minutes
Give just the numeric value; % need not be written.

Answered cases to consult:
COc1ccn2nc(C)c(C(=O)NCc3ccc(N4CCN(c5ccc(OC(F)(F)F)cc5)[C@@H](C)C4)c(F)c3)c2c1.Cl : 91
Cc1ccn2c(C(=O)NCc3ccc(N4CCN(CC(F)F)CC4)c(F)c3)cnc2c1 : 64.6
Cc1cn2c(C(=O)NCc3ccc(N4CCN(c5ccc(OC(F)(F)F)cc5)C(C)(C)C4)c(F)c3)c(C)nc2s1 : 82.7

--- query ---
Task: Need MS_h_% (remaining amount of compound after reaction, 0 minute = 100%) of CC[C@H]1CN(c2ccc(CNC(=O)c3c(C)nn4ccc(OC)cc34)cc2F)CCN1c1ccc(OC(F)(F)F)cc1.Cl , thanks.
Output: 73.5

###

Each entry below carries its recorded MS_h_% (remaining amount of compound after reaction, 0 minute = 100%).
experiment: Metabolic stability test in pooled human liver microsomes; format: in vitro ADME; details: human liver microsomes 0.5 mg protein/mL, 1 mmol/L NADPH, 37° C., 30 minutes
Give just the numeric value; % need not be written.

Answered cases to consult:
CCc1nc2cc(F)ccn2c1C(=O)NCc1ccc(N2CCN(c3ccc(OC4CC4)cc3)[C@@H](C)C2)c(F)c1.Cl [Compound I-1-110] : 80
CCc1nc2ccc(Cl)cn2c1C(=O)NCc1ccc(N2CCN(c3ccc(OC(F)(F)F)cc3)[C@@H](CC)C2)c(F)c1 [Compound I-1-42] : 59
Cc1ccn2c(C(=O)NCc3ccc(C4CCN(c5ccc(OCC(F)(F)F)cc5)CC4)c(F)c3)c(C)nc2c1 [Compound I-1-21] : 89
Cc1cn2c(C(=O)NCc3ccc(Oc4cccc(C(F)(F)F)c4)cc3)c(C)nc2s1 [Compound I-3-46] : 63.1
CCc1nc2ccc(Cl)cn2c1C(=O)NCc1ccc(C2CCN(c3ccc(OCC4CC4)nc3)CC2)c(F)c1.Cl [Compound I-1-76] : 80

Task: Need MS_h_% (remaining amount of compound after reaction, 0 minute = 100%) of CCc1nc2ccc(Cl)cn2c1C(=O)NCc1ccc(-c2cccc(OC(F)(F)F)c2)c(F)c1 [Compound I-3-2] , thanks.
Output: 97.7

###

assay: Metabolic stability test in pooled human liver microsomes; format: in vitro ADME; conditions: human liver microsomes 0.5 mg protein/mL, 1 mmol/L NADPH, 37° C., 30 minutes
Each entry below carries its recorded MS_h_% (remaining amount of compound after reaction, 0 minute = 100%).
Give just the numeric value; % need not be written.

Cc1nc2ccc(F)cn2c1C(=O)NCc1ccc(N2CCN(c3ccc(OC(F)(F)F)cc3)[C@@H](C)C2)cc1 : 77.8
Cc1cn2c(C(=O)NCc3ccc(N4CCC5(CCN(c6ccc(C(F)(F)F)cc6)CC5)CC4)c(F)c3)c(C)nc2s1 : 84.9
Cc1nc2cc(F)ccn2c1C(=O)NCc1ccc(N2CCC(c3ccc(OC(F)(F)F)cc3)CC2)c(F)c1 : 106

Task: Need MS_h_% (remaining amount of compound after reaction, 0 minute = 100%) of Cc1nc2ccc(Br)cn2c1C(=O)NCc1ccc(N2CCC(c3ccc(F)cc3)CC2)cc1 , thanks.
Output: 68

Task: # repeat for Cc1ccn2c(C(=O)NCc3ccc(-c4ccc(OC(C)C)cc4)c(F)c3)c(C)nc2c1
Output: 85.9

Task: # repeat for CCCCOc1ccc(N2CCN(c3ccc(CNC(=O)c4c(CC)nc5ccc(Cl)cn45)c(F)c3)C[C@@H]2C)cc1.Cl
Output: 64

Task: # repeat for CCc1nc2ccc(Cl)cn2c1C(=O)NCc1ccc(C2CCN(c3ccc(OCC(F)(F)F)nc3)CC2)cc1F.Cl
Output: 71
